// provenance: paper PMC2756588

TARGET SYSTEM: T1, Boi2, P39969
T1 sequence (P39969 32-116, looked up): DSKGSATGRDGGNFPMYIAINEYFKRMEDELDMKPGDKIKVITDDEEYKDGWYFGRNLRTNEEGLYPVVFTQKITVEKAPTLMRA
EXPERIMENTAL PROTOCOL: SPOT array
MEASUREMENT PARAMETERS: median of control spots 1161
READOUT TYPE: SPOT intensity

Field: example entries. Status: answers known.
| BINDER | SPOT intensity |
| --- | --- |
| RRRDFGAPANKRPRR | 1 |
| QPWTDQFEKLEKEVS | 0 |
| EEEEEHPPLPARRKS | 0 |

I: VATSTSPKLPPRGKQ
II: FPGKKSPRLPHRNKK
III: SSSSSPPPLPTRRDH
Query: List the 3 entries from lowest SPOT intensity to highest SPOT intensity value. Give me the labels in the order the question wants.
Reply: II, I, III
(II: 0, I: 1, III: 4)

P: PAPPPPPRASRPTPN
Q: PKRRAPPPVPKKPSS
R: RMVRRRPLRVQFSAR
Query: Form: Sort by [SPOT intensity] Order [ ascending ] Submit the labels in the order that the ranking request calls for.
Reply: P, Q, R

I: LSKRLPLRFPEHTSS
II: VPPVPLPFGIPPFPM
Query: Compare I and II by numeric SPOT intensity and name the larger one. Identify your pick by its label.
Reply: II
(II: 1, I: 0)

P: YHSRRHPLALGFKYV
Q: NRLRKRLNLPSEISI
Query: Of P and Q , which one carries the higher reported SPOT intensity? Write the label of whichever entry you select.
Reply: Q
